MEASURED_QUANTITY: melting point

# STRUCTURE_AS_SMILES, MEASURED_QUANTITY, MEAS_VALUE
records = [
    ("C=Cc1ccc(NC(=S)N2CCN(c3ncnc4cc(OC)c(OC)cc34)CC2)cc1", "melting point", "110 to 111 °C"),
]

Each of the following entries comes with a recorded value; kindly state melting point for each.
1. COc1cc2ncnc(N3CCN(C(=O)Nc4ccc(C(=O)C(F)(F)F)cc4)CC3)c2cc1OC
2. COc1cc2ncnc(N3CCN(C(=S)NCc4cccc(Cl)c4)CC3)c2cc1OC
3. CC(C)c1ccc(NC(=O)N2CCN(c3ncnc4ccc(F)cc34)CC2)cc1

OUTPUT:
["144 to 146 °C", "117 to 119 °C", "139 to 140 °C"]

Hi there! I need melting point for each item below, if you can.
1. COc1cc2ncnc(N3CCN(C(=O)NCc4cnc(C)cn4)CC3)c2cc1OC
2. O=C(Nc1ccc([N+](=O)[O-])cc1)N1CCN(c2ncnc3cc4c(cc23)OCO4)CC1

OUTPUT:
1. 202 to 204 °C
2. 247 to 250 °C

Please supply melting point for each of the following items, keeping them in order.
1. COc1cc2ncnc(N3CCN(C(=O)Nc4ccccc4F)CC3)c2cc1OC
2. CCc1ccc(NC(=O)N2CCN(c3ncnc4cc(OC)c(OC)cc34)CC2)cc1
3. COc1cc2ncnc(N3CCN(C(=S)Nc4cc(O)nc(O)n4)CC3)c2cc1OC
4. COc1cc2ncnc(N3CCN(C(=S)Nc4ccc(N=Nc5ccc(N(C)C)cc5)cc4)CC3)c2cc1OC
5. COc1cc2ncnc(N3CCN(C(=S)Nc4ccccn4)CC3)c2cc1OC

OUTPUT:
1. 176 to 177 °C
2. 251 to 252 °C
3. 283 to 285 °C
4. 148 to 149 °C
5. 208 to 210 °C
